Measured MIC, listed per entry.
# Tested on: Streptococcus pneumoniae
# Method Notes: MIC by agar dilution (NCCLS), 411 isolates Buenos Aires 1998-99
# Type: cell-based
# Test Conditions: Streptococcus pneumoniae, Ciprofloxacin-resistant S. pneumoniae, Strain 4; read-out: MIC
Respond with the bare value in µg/mL.

# annotated cases, reported MIC shown
| Molecule | Target Or System | MIC / µg/mL |
| --- | --- | --- |
| CO/N=C1\CN(c2nc3c(cc2F)c(=O)c(C(=O)O)cn3C2CC2)CC1CN (racemic) | Streptococcus pneumoniae | 0.06 |
| C[C@H]1COc2c(N3CCN(C)CC3)c(F)cc3c(=O)c(C(=O)O)cn1c23 | Streptococcus pneumoniae | 2 |
| N[C@@H]1[C@H]2CN(c3nc4c(cc3F)c(=O)c(C(=O)O)cn4-c3ccc(F)cc3F)C[C@@H]12 | Streptococcus pneumoniae | 1 |

Here is another molecule to look at.
Measured MIC, CC1COc2c(N3CCN(C)CC3)c(F)cc3c(=O)c(C(=O)O)cn1c23 (stereo not shown) : 8
